System: Escherichia coli
Assay text: Antibacterial activity against Escherichia coli ATCC 8099 assessed as growth inhibition after 24 hrs by liquid dilution method
Assay type: functional
Protocol conditions: ATCC 8099, 24 h
Measured property: MIC (µg/mL)
Your answer is read as µg/mL, so omit the unit and give the number.

Please review the following examples before continuing.
N#Cc1c(Cl)c(Cl)c(Nc2ccc(Nc3cccc(Cl)c3)c3c(=O)[nH]cnc23)c(C#N)c1Cl: 7.8
N#Cc1c(Cl)c(Cl)c(Nc2ccc(N3CCCCC3)c3c(=O)[nH]cnc23)c(C#N)c1Cl: 1
N#Cc1c(Cl)c(Cl)c(Nc2ccc(Nc3ccc(F)cc3)c3c(=O)[nH]cnc23)c(C#N)c1Cl: 6.5
N#Cc1c(Cl)c(Cl)c(Cl)c(C#N)c1Cl: 0.5

Item N#Cc1c(Cl)c(Cl)c(Nc2ccc(Nc3ccccc3)c3c(=O)[nH]cnc23)c(C#N)c1Cl with Escherichia coli - MIC?
250
